- System: rat cytochrome P4503A
- CONDITIONS: oil ingredient at 0.001 wt % (Table 2)
REPORTED ENDPOINT: % inhibition (0.001%)

• CC1(C)C(=O)[C@]2(C)CC[C@H]1C2 [Fenchone-(IR)-(-)] = 38
• CC(C)=C1CC[C@@H](C)CC1=O [Pulegone-(R)-(+), p-Menth-4-(8)-en-3-one] = 31
• Cc1ccc(C(C)C)cc1O = 93
• Cc1ccc(C(C)C)c(O)c1 = 56
• C=C1CC/C=C(\C)CC[C@@H]2[C@@H]1CC2(C)C [Caryophyllene, trans-(-), β Caryophyllene] = 85
• C/C=C/c1ccc(OC)cc1 [Anethole, trans-, 4-Propenylanisole] = 53
• C=C1C2CCC(C2)C1(C)C (single isomer, unassigned) [Camphene-(+)] = 12.4
• O=C/C=C/c1ccccc1 [Cinnamic Aldehyde, trans-, 3-Phenylpropenaldehyde] = 29.0
• CC1(C)[C@H]2CC[C@]1(C)[C@H](O)C2 [Borneol-(IS)-endo(-), 1,7,7-Trimethylbicyclo[2.2.1]heptan-2-ol] = 80
• C=C(C)C1CC=C(C)C(O)C1 (single isomer, unassigned) [Carveol-(-), p-Mentha-6,8-dien-2-ol] = 60
• CC(C)=CCCC(C)CCO (centres unmarked) = 86
• C=CC(C)(CCC=C(C)C)OC(C)=O (centres unmarked) [Linalyl Acetate, 3,7-Dimethyl-1,6-octadien-3-yl acetate] = 55.8
• C=CCc1ccc(O)c(OC)c1 = 66
• CCOC(=O)/C=C/c1ccccc1 [Ethyl Cinnamate, trans-] = -16
